- testName: qHTS assay for small molecule antagonists of retinoid X receptor alpha signaling (AID 588546);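 note: cells stimulated with 9-cis-retinoic acid as agonist; % is set by controls: 0 for no effect and ±100 for the full control effect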
- reportedConditions: HEK293T RXRa-UAS-bla, beta-lactamase ratio, antagonist mode; measured here: W530 green channel, cytotoxicity proxy
Inconclusive results are not listed.
parameterMeasured: max response (%)
One number for each entry, in %.

[[record]]
compound = "CC(C)O"
reportedmeasurement = -15.1

[[record]]
compound = "CCOC(C)OCC"
reportedmeasurement = -5.73

[[record]]
compound = "CC(C)CCC[C@@H](C)[C@H]1CC[C@H]2[C@@H]3CC=C4C[C@@H](O)CC[C@]4(C)[C@H]3CC[C@]12C"
reportedmeasurement = 11.8

[[record]]
compound = "OC[C@H]1O[C@@](CO)(O[C@H]2O[C@H](CO)[C@@H](O)[C@H](O)[C@H]2O)[C@@H](O)[C@@H]1O"
reportedmeasurement = -3.43


Batch request: max response for each of the following compounds.
1. CC1=CCC2CC1C2(C)C (stereo not given)
2. C[Si](C)(C)O[Si](C)(C)C
3. Cc1ncc[nH]1
4. CC[C@H]1OC(=O)[C@H](C)[C@@H](O[C@H]2C[C@@](C)(OC)[C@@H](O)[C@H](C)O2)[C@H](C)[C@@H](O[C@@H]2O[C@H](C)C[C@H](N(C)C)[C@H]2O)[C@](C)(O)C[C@@H](C)CN(C)[C@H](C)[C@@H](O)[C@]1(C)O
5. CO/N=C(/C(=O)N[C@@H]1C(=O)N2C(C(=O)O)=C(COC(N)=O)CS[C@H]12)c1ccco1
6. C[C@H](CCC(=O)O)[C@H]1CC[C@H]2[C@@H]3[C@H](O)C[C@@H]4C[C@H](O)CC[C@]4(C)[C@H]3C[C@H](O)[C@]12C

-2.11
-6.12
2.25
13.1
-0.122
8.31

Batch request: max response for each of the following compounds.
1. OCl
2. Nc1ncnc2c1ncn2[C@H]1CC[C@@H](CO)O1

1. 1.84
2. 0.911

Batch request: max response for each of the following compounds.
1. NCCN
2. Nc1nccs1
3. CCCCC(CC)COS(=O)(=O)O (stereo not given)

1: -1.66; 2: -5.85; 3: -15.9
